The reported numbers originate from ChEMBL document CHEMBL5137011.

Tested on: RAW264.7
assay.summary: Cytotoxicity against mouse RAW264.7 cells assessed as reduction in cell viability at 8 ug/ml incubated for 16 hrs by MTT assay
Format: toxicity, cell-based
measurement.parameters: raw264.7, 16 h, dose 8 µg/ml
value.kind: Activity

Observe how each entry below is paired with its result.
C=C[C@]1(C)C[C@@H](OC(=O)CSc2nnc(-c3ccc(Cl)cc3)[nH]2)[C@]2(C)[C@H](C)CC[C@]3(CCC(=O)[C@H]32)[C@@H](C)[C@@H]1O Non-Toxic
C=C[C@]1(C)C[C@@H](OC(=O)CSc2nnc(-c3ccccc3Cl)[nH]2)[C@]2(C)[C@H](C)CC[C@]3(CCC(=O)[C@H]32)[C@@H](C)[C@@H]1O Non-Toxic
C=C[C@]1(C)C[C@@H](OC(=O)CSc2nnc(-c3ccccc3OC)[nH]2)[C@]2(C)[C@H](C)CC[C@]3(CCC(=O)[C@H]32)[C@@H](C)[C@@H]1O Non-Toxic
C=C[C@]1(C)C[C@@H](OC(=O)CSc2nnc(-c3ccc([N+](=O)[O-])cc3)[nH]2)[C@]2(C)[C@H](C)CC[C@]3(CCC(=O)[C@H]32)[C@@H](C)[C@@H]1O Non-Toxic

Query: Entry "C=C[C@]1(C)C[C@@H](OC(=O)CSc2nnc(-c3ccccc3F)[nH]2)[C@]2(C)[C@H](C)CC[C@]3(CCC(=O)[C@H]32)[C@@H](C)[C@@H]1O" : reported Activity = ?
Reply: Non-Toxic

Query: What do you have for "C=C[C@]1(C)C[C@@H](OC(=O)CSc2nnc(-c3ccc(C)cc3)[nH]2)[C@]2(C)[C@H](C)CC[C@]3(CCC(=O)[C@H]32)[C@@H](C)[C@@H]1O" ?
Reply: Non-Toxic

Query: What do you have for "C=C[C@]1(C)C[C@@H](OC(=O)CSc2nnc(-c3ccccc3[N+](=O)[O-])[nH]2)[C@]2(C)[C@H](C)CC[C@]3(CCC(=O)[C@H]32)[C@@H](C)[C@@H]1O" ?
Reply: Non-Toxic

----------
assay.summary: Clearance in mouse assessed as hepatic blood flow at 10 mg/kg, iv administered as bolus infection measured upto 24 hrs by LC-MS analysis
Format: ADME, organism-based
measurement.parameters: in vivo
value.kind: QH
# include the unit after the value

Query: Entry "C=C[C@]1(C)C[C@@H](OC(=O)CSc2nnc(-c3ccccc3F)[nH]2)[C@]2(C)[C@H](C)CC[C@]3(CCC(=O)[C@H]32)[C@@H](C)[C@@H]1O" : reported QH = ?
Reply: 90 mL/min/kg
